Values were extracted from patent US8476451B2.

system: L929 mouse fibroblast cells; experiment: Growth inhibition, MTT assay, L929; assay type: cell-based; details: statement on Table 2 cell lines
recorded-metric: Cytotoxicity / activity relative to tubulysin D, in words

# molecule, endpoint-value
data = [
    ("CC[C@H](C)[C@H](NC(=O)[C@H]1CCCCN1C)C(=O)N(COC(=O)CC(C)C)[C@H](C[C@@H](OC(C)=O)c1nc(C(=O)O)cs1)C(C)C [Analogue 5]", "maintained good activity"),
    ("CC[C@H](C)[C@H](NC(=O)[C@H]1CCCCN1C)C(=O)N(COC(=O)CC(C)C)[C@H](C[C@@H](OC(C)=O)c1nc(C(=O)NC)cs1)C(C)C [Analogue 4]", "maintained good activity"),
]
